Experiment: Cytotoxicity against African green monkey Vero E6 cells incubated for 72 hrs by CCK8 assay
Assay type: toxicity, cell-based, Vero C1008
Conditions: chlorocebus sabaeus
Readout label: CC50 at 72 h
Answer with the value and then the unit.

*Q* Fill in: CC50 at 72 h of CCC(CC)COC(=O)[C@H](C)N[P@](=O)(OC[C@H]1O[C@@](C#N)(c2ccc3c(N)ncnn23)[C@H](O)[C@@H]1O)Oc1ccccc1 [REMDESIVIR] is ___
*A* 42 µM

====

Experiment: Cytotoxicity against HPAEpiC cells incubated for 72 hrs by CCK8 assay
Assay type: toxicity, cell-based
Conditions: human
Readout label: CC50 at 72 h

*Q* Suppose we examine the molecule CNc1nc(N)nc2c1ncn2[C@@H]1O[C@H](CO[P@@](=O)(N[C@@H](C)C(=O)OC(C)C)Oc2ccccc2)[C@@H](O)[C@]1(F)CF.O=S(=O)(O)O ; what CC50 at 72 h value has been reported?
*A* > 200 µM

meta.source: ChEMBL document CHEMBL6087487
